B1: MIA2 (parent)
chain: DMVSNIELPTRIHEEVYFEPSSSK

- Variants of: B1
- Experimental protocol: protein stability index of a GFP-peptide fusion (GPS, HEK-293T) (PSI 1-6); higher = more stable;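 further: lentivirally expressed fusions sorted by FACS into six bins by GFP to DsRed ratio, PSI derived from sequencing read proportions per bin multiplied by bin number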
- Assay conditions: c terminus: a fixed tail appended
Assay metric: protein stability index
Numbers only.

Answer for every listed entry: what is its protein stability index? The entries follow.
1. DMESNIELPTRIHEEVYFEPSSSK [V3E]
2. DMVSNIELPTRRHEEVYFEPSSSK [I12R]
3. DMVSLIELPTRIHEEVYFEPSSSK [N5L]
4. DMVSNNELPTRIHEEVYFEPSSSK [I6N]
5. DMVSNIELPWRIHEEVYFEPSSSK [T10W]
6. DMVSNIELPTRIHEEVYFEPKSSK [S21K]

1: 4.65; 2: 3.06; 3: 3.19; 4: 4.77; 5: 3.27; 6: 3.46

# batch: return protein stability index for each of the 8 variants below
1. DMVSNIELPTNIHEEVYFEPSSSK [R11N]
2. DEVSNIELPTRIHEEVYFEPSSSK [M2E]
3. DMVSNIELPTRIHEEVYFAPSSSK [E19A]
4. DMISNIELPTRIHEEVYFEPSSSK [V3I]
5. DMFSNIELPTRIHEEVYFEPSSSK [V3F]
6. DMVSNIELPTRIEEEVYFEPSSSK [H13E]
7. FMVSNIELPTRIHEEVYFEPSSSK [D1F]
8. DMRSNIELPTRIHEEVYFEPSSSK [V3R]

1. 4.39
2. 5.23
3. 3.53
4. 4.26
5. 3.73
6. 4.44
7. 2.87
8. 4.56

Okay, here is my list. What is protein stability index for each of these?
1. DMVSNIVLPTRIHEEVYFEPSSSK [E7V]
2. DMVSNIEMPTRIHEEVYFEPSSSK [L8M]
3. DMVSNIELHTRIHEEVYFEPSSSK [P9H]
4. DMVINIELPTRIHEEVYFEPSSSK [S4I]
5. DIVSNIELPTRIHEEVYFEPSSSK [M2I]
6. WMVSNIELPTRIHEEVYFEPSSSK [D1W]

3.53
3.46
3.5
1.93
3.62
2.63

Give protein stability index for each of the items listed below.
1. DMVSNIELPTRIHEEVYFEPSSYK [S23Y]
2. DMVSNIELPTRIHEEVYFEASSSK [P20A]
3. DGVSNIELPTRIHEEVYFEPSSSK [M2G]

1: 4.18; 2: 3.69; 3: 4.78

Record protein stability index for all entries; do not skip any.
1. DMVSNIELPTFIHEEVYFEPSSSK [R11F]
2. DMVSNIELPTRQHEEVYFEPSSSK [I12Q]
3. DMVSNIELYTRIHEEVYFEPSSSK [P9Y]
4. DMVSNIELPTRIHEPVYFEPSSSK [E15P]
5. DMVSNIELPTRISEEVYFEPSSSK [H13S]

1: 3.42; 2: 4.11; 3: 3.41; 4: 2.96; 5: 3.33

Give protein stability index for each of the items listed below.
1. DMVSNLELPTRIHEEVYFEPSSSK [I6L]
2. DMVSNIELPTRIHEEVYSEPSSSK [F18S]
3. DMVSNIELPTRIHEEVYFDPSSSK [E19D]
4. DMVSNIELPTRIHECVYFEPSSSK [E15C]
5. DMVSNIELFTRIHEEVYFEPSSSK [P9F]

4.16
4.62
3.38
2.97
3.01

Batch: protein stability index for all items listed.
1. DMVSNIELPTRAHEEVYFEPSSSK [I12A]
2. DMVSNIELPTRIHEEVGFEPSSSK [Y17G]
3. DMVSNIELPTRIHEEHYFEPSSSK [V16H]
4. DMVSNIELPTRIQEEVYFEPSSSK [H13Q]
5. DMVSNIELPTDIHEEVYFEPSSSK [R11D]
6. DMVSNIELPTRIHEVVYFEPSSSK [E15V]

4.18
4.47
3.55
3.84
4.49
2.6

For the 4 variants below, give their protein stability index values.
1. DMVSNIELPTRIHEEVYFEFSSSK [P20F]
2. DMVSNIELPTRIHEEVYFEPSSSE [K24E]
3. DMVSNIELPTRIHEEVYKEPSSSK [F18K]
4. DMVSNIELPTRIHEEVYFEKSSSK [P20K]

2.42
4.11
3.51
3.84

src = the supplement of paper PMC10567573
